Sourced from paper PMC7376644

assay: PZQ-ketoconazole DDI pharmacokinetic study in healthy volunteers; assay type: in vivo, human; settings: male, human, plasma, po, 20 mg/kg, single oral 20 mg/kg PZQ alone, n = 9; read-out: Elimination rate constant, reference geo mean (converted)
Assign k el to each entry below.
The answer is to be given in s⁻¹; state only the numeric part.

// field: k el; key: `O=C(C1CCCCC1)N1CC(=O)N2CCc3ccccc3[C@H]2C1` ; value = 8.33e-05

// field: k el; key: `O=C(C1CCCCC1)N1CC(=O)N2CCc3ccccc3[C@@H]2C1` ; value = 6.11e-05

* * *

Assign CL/F to each entry below.
test: PZQ-ketoconazole DDI pharmacokinetic study in healthy volunteers; format: in vivo, human; conditions: male, human, plasma, oral, 20 mg/kg, 20 mg/kg PZQ plus 200 mg ketoconazole, n = 9; read-out: Clearance/F, treatment geo mean (converted)
The answer is to be given in mL/min; state only the numeric part.

// field: CL/F; key: O=C(C1CCCCC1)N1CC(=O)N2CCc3ccccc3[C@H]2C1 [S‐PZQ, S‐Praziquantel] ; value = 3340

// field: CL/F; key: O=C(C1CCCCC1)N1CC(=O)N2CCc3ccccc3[C@@H]2C1 [R‐PZQ, R‐Praziquantel] ; value = 15300

* * *

test: PZQ-ketoconazole DDI pharmacokinetic study in healthy volunteers; format: in vivo, human; conditions: male, human, plasma, po, 20 mg/kg, single oral 20 mg/kg PZQ alone, n = 9; read-out: Clearance/F, reference mean (SD) (converted)
Assign CL/F to each entry below.
The answer is to be given in mL/min; state only the numeric part.

// field: CL/F; key: O=C(C1CCCCC1)N1CC(=O)N2CCc3ccccc3[C@@H]2C1 [R‐PZQ, R‐Praziquantel] ; value = 15000

// field: CL/F; key: O=C(C1CCCCC1)N1CC(=O)N2CCc3ccccc3[C@H]2C1 [S‐PZQ, S‐Praziquantel] ; value = 5670

* * *

Assign half-life at 1 µmol/L to each entry below.
target: CYP2C19 (Homo sapiens, UniProt P33261); experiment: in vitro; settings: recombinant CYP2C19, pH 7.4
Sequence (P33261 whole entry): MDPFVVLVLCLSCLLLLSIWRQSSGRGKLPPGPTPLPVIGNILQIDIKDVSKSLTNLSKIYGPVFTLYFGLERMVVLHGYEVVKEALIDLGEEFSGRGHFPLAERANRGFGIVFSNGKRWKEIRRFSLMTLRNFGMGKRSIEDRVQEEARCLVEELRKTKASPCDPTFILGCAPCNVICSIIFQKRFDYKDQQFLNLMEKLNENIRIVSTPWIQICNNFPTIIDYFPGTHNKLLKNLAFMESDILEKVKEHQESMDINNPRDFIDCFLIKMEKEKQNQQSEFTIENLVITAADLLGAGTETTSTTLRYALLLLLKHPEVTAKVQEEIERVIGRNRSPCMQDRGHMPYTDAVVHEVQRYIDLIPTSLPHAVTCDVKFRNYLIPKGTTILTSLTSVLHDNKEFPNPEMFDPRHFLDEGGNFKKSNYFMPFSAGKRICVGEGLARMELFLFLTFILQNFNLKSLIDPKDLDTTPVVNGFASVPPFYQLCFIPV
The answer is to be given in min; state only the numeric part.

// field: half-life at 1 µmol/L; key: `O=C(C1CCCCC1)N1CC(=O)N2CCc3ccccc3[C@@H]2C1` ; value = 3.6

// field: half-life at 1 µmol/L; key: `O=C(C1CCCCC1)N1CC(=O)N2CCc3ccccc3[C@H]2C1` ; value = 4.13

* * *

test: PZQ-ketoconazole DDI pharmacokinetic study in healthy volunteers; type: in vivo, human; conditions: male, human, plasma, po, 20 mg/kg, single oral 20 mg/kg PZQ alone, n = 9; read-out: T max, reference geo mean
Assign Tmax to each entry below.
The answer is to be given in h; state only the numeric part.

// field: Tmax; key: `O=C(C1CCCCC1)N1CC(=O)N2CCc3ccccc3[C@@H]2C1` ; value = 2.59

// field: Tmax; key: `O=C(C1CCCCC1)N1CC(=O)N2CCc3ccccc3[C@H]2C1` ; value = 2.96

* * *

Assign AUC to each entry below.
experiment: PZQ-ketoconazole DDI pharmacokinetic study in healthy volunteers; type: in vivo, human; details: male, human, plasma, oral, AUC, PZQ + KTZ
The answer is to be given in ng·h/mL; state only the numeric part.

// field: AUC; key: `O=C(C1CCCCC1)N1CC(=O)N2CCc3ccccc3[C@H]2C1` ; value = 6460

// field: AUC; key: `O=C(C1CCCCC1)N1CC(=O)N2CCc3ccccc3[C@@H]2C1` ; value = 1470
